Assay Notes: qHTS for Inhibitors of human tyrosyl-DNA phosphodiesterase 1 (TDP1): qHTS in cells in absence of CPT; also: nearly all actives have a fitted effect of over 55% in size; also: potency is read from the fitted curve at half-maximal effect
Condition Label: DT40 Tdp1-/- hTDP1 cells, no CPT, ATP luminescence, 48 h
Screen size: about 420,000 compounds; about 64,000 (15%) were called active. Another 27% or so got no clear call; they are omitted. A selection follows.
Measure: Potency

Examples with answers:
{"Molecule": "CCOC(=O)[C@]12CCC=C1N(Cc1ccco1)C(=O)[C@H](CC(=O)N1CCSCC1)C2", "Potency": "inactive"}
{"Molecule": "CCCn1c(SCC(N)=O)nnc1C(C)C", "Potency": "inactive"}
{"Molecule": "Cc1ncn(C23CC4CC(CC(O)(C4)C2)C3)n1", "Potency": "inactive"}
{"Molecule": "CC1CN(c2cc(=O)n(Cc3ccc(F)cc3)c(=O)[nH]2)CC(C)O1 (stereo not given)", "Potency": "inactive"}
{"Molecule": "CCOC(=O)NCc1ccc2c(c1)OCO2", "Potency": "inactive"}

Prompt: Potency for `Cc1noc(C)c1S(=O)(=O)N(C)C[C@H]1Oc2c(NC(=O)Nc3ccc4c(c3)OCO4)cccc2C(=O)N([C@H](C)CO)C[C@@H]1C` ?
Response: inactive

Prompt: Potency for `COC(=O)c1ccc(NC(=O)C23CC4CC(C2)CC(n2cnc(Cl)n2)(C4)C3)cc1` ?
Response: 16.4 µM (active)

Prompt: Potency for `COC(=O)[C@@H]1CC2=CC(=O)CC[C@]2(C)[C@@]23O[C@@H]2C[C@@]2(C)[C@@H](CC[C@@]24CCC(=O)O4)[C@H]13` ?
Response: inactive

Prompt: Potency for `CCCCN(CC)C(=O)c1ccc2c(c1)OCO2` ?
Response: inactive

Prompt: Potency for CCOC(=O)C1CCN(C(=O)CC2C(=O)N(Cc3ccccc3)C(C)c3nc4ccccc4n32)CC1 (stereo not given) ?
Response: inactive

---

Assay Notes: qHTS for Inhibitors of human tyrosyl-DNA phosphodiesterase 1 (TDP1): qHTS in cells in absence of CPT; also: nearly all actives have a fitted effect of over 55% in size
Condition Label: DT40 Tdp1-/- hTDP1 cells, no CPT, ATP luminescence, 48 h
About 64,000 (15%) of roughly 420,000 compounds were called active. About 27% were inconclusive and are not listed. Calls come from the whole dose curve; as a rule, active = well fitted inhibition curve with a large enough effect; inconclusive = small, poorly fitted or top-dose-only effect; inactive = flat fitted curve, though single readings scatter. The list is a sample of the results.
Select the matching outcome among class 1 (active), class 0 (inactive)

Before answering, review these 3 worked examples.
{"Compound": "CCN(CC)S(=O)(=O)c1ccc(N(C)Cc2cccc(OC)c2OC)nc1", "Assigned Class": "class 1"}
{"Compound": "COC(=O)CN(c1nc(C)c(Cl)c(OC)n1)S(=O)(=O)c1ccc(C)cc1", "Assigned Class": "class 0"}
{"Compound": "CCOC(=O)N1CCN(C(=O)C2CCN(S(=O)(=O)c3cc(Cl)ccc3OCC)CC2)CC1", "Assigned Class": "class 0"}

Prompt: Which outcome was entered for the compound `COC(=O)c1ccc(NC(=O)CSc2nc(N)c(NC(=O)c3ccc(Br)o3)c(=O)[nH]2)cc1` in this test?
Response: class 0

Prompt: Which outcome was entered for the compound `CCN(CC)S(=O)(=O)c1ccc(N(C)Cc2ccc(C(F)(F)F)cc2)nc1` in this test?
Response: class 1

Prompt: Which outcome was entered for the compound `CCN(CC)S(=O)(=O)c1ccc(OC)c(NC(=O)CCc2c(C)noc2C)c1` in this test?
Response: class 0

Prompt: Which outcome was entered for the compound `COCCN(C(=O)CSCc1ccc(C)cc1)c1c(N)n(CC(C)C)c(=O)[nH]c1=O` in this test?
Response: class 0

Prompt: Which outcome was entered for the compound `COCCN(C(=O)COC(=O)Cc1cccc(OC)c1)c1c(N)n(Cc2ccccc2)c(=O)[nH]c1=O` in this test?
Response: class 0

Prompt: Which outcome was entered for the compound Cc1cc(=O)n2nc(N3CCCC(C(=O)N4CCN(C)CC4)C3)sc2n1 (stereo not given) in this test?
Response: class 0

Prompt: Which outcome was entered for the compound `CCN(C(=O)COC(=O)c1c(C)nn(-c2ccccc2)c1Cl)c1c(N)n(Cc2ccccc2)c(=O)[nH]c1=O` in this test?
Response: class 0

Prompt: Which outcome was entered for the compound `CCCCN(C)CCNC(=O)CSCc1ccc(C)cc1` in this test?
Response: class 0

Prompt: Which outcome was entered for the compound `CC(=O)O[C@]1(C(C)=O)CC[C@H]2[C@@H]3CCC4=CC(=O)CC[C@]4(C)[C@@]3(F)[C@@H](O)C[C@@]21C` in this test?
Response: class 0

Prompt: Which outcome was entered for the compound Cc1nc(N2CCCC2C(=O)O)c2oc3ccccc3c2n1 (stereo not given) in this test?
Response: class 0

Prompt: Which outcome was entered for the compound `CCOC(=O)N1CCN(C(=O)C2CCN(c3ncnc4c3sc3cccc(F)c34)CC2)CC1` in this test?
Response: class 1

Prompt: Which outcome was entered for the compound `COCCCN(C(=O)CSCc1ccc(C)cc1)c1c(N)n(Cc2ccccc2)c(=O)[nH]c1=O` in this test?
Response: class 0

Prompt: Which outcome was entered for the compound `CCN(CC)S(=O)(=O)c1ccc(NC(=O)c2cnc(C)cn2)cc1` in this test?
Response: class 0

Prompt: Which outcome was entered for the compound `O=C(CSc1nc2[nH]ncc2c(=O)[nH]1)Nc1ccc(F)cc1` in this test?
Response: class 0

---

Assay Notes: qHTS for Inhibitors of human tyrosyl-DNA phosphodiesterase 1 (TDP1): qHTS in cells in absence of CPT; also: nearly all actives have a fitted effect of over 55% in size
Condition Label: DT40 Tdp1-/- hTDP1 cells, no CPT, ATP luminescence, 48 h
Description: Human tyrosyl-DNA phosphodiesterase 1 (TDP1) is a novel repair gene, and we propose to use it as a new target for anticancer drug development. […] For the primary screen, Tdp1-/-;hTDP1 cells will be exposed to small molecules in the presence or absence of CPT, and their growth kinetics will be evaluated after 48 hours by measuring ATP activity. […] The hit compounds will then be evaluated in the presence or absence of CPT using Tdp1-/- cells. […]
Hit rate of the full screen: of about 420,000 compounds, about 64,000 (15%) were called active. Another 27% or so got no clear call; they are omitted. Calls follow the shape of the dose curve; as a rule, active = well fitted inhibition curve with a large enough effect; inconclusive = small, poorly fitted or top-dose-only effect; inactive = flat fitted curve, though single readings scatter. The list is a sample of the results.
Select the matching outcome among YES for active, NO for inactive

Before answering, review these 10 worked examples.
{"Compound": "C/C(=N/OC(=O)c1ccc(Br)cc1)c1ccc(C)cc1", "Assigned Class": "NO"}
{"Compound": "COc1ccc(N2C(=O)CC(Nc3ccc(F)cc3)C2=O)c([N+](=O)[O-])c1 (configuration not stated)", "Assigned Class": "NO"}
{"Compound": "CCn1c2ccccc2c2cc(CC(N)=O)ccc21", "Assigned Class": "NO"}
{"Compound": "Cc1nnc(SCC(=O)N2CCOCC2)[nH]c1=O", "Assigned Class": "NO"}
{"Compound": "CN1CCN(c2ccc(S(=O)(=O)Nc3ccccc3)cc2[N+](=O)[O-])CC1", "Assigned Class": "YES"}
{"Compound": "COc1ccc(NS(=O)(=O)c2ccc(N3CCOCC3)c(NC(=O)/C=C/C(=O)O)c2)cc1", "Assigned Class": "NO"}
{"Compound": "CC1CCN(c2ccc(S(=O)(=O)Nc3cc(C(=O)O)cc(C(=O)O)c3)cc2[N+](=O)[O-])CC1", "Assigned Class": "NO"}
{"Compound": "N[C@H]1CN(c2c(F)cc3c(=O)c(C(=O)O)cn(C4C[C@H]4F)c3c2Cl)CC12CC2 (some centres not stated)", "Assigned Class": "NO"}
{"Compound": "O=C(c1ccco1)N1CCC2(CC1)CN(c1ncccn1)C2", "Assigned Class": "NO"}
{"Compound": "Cc1ccc(C(=O)c2ccc(N3CCN(C)CC3)c([N+](=O)[O-])c2)cc1", "Assigned Class": "YES"}

Prompt: Which outcome was entered for the compound Brc1ccc(C2CC(c3ccccc3)=Nc3ccccc3N2)cc1 (configuration not stated) in this test?
Response: YES

---

Assay Notes: qHTS for Inhibitors of human tyrosyl-DNA phosphodiesterase 1 (TDP1): qHTS in cells in absence of CPT; also: nearly all actives have a fitted effect of over 55% in size
Condition Label: DT40 Tdp1-/- hTDP1 cells, no CPT, ATP luminescence, 48 h
The campaign covered roughly 420,000 compounds. About 64,000 (15%) were called active. Not shown: some 27% with an inconclusive outcome. The call rests on the fitted dose curve; in most records, active means well fitted inhibition curve with a large enough effect; inconclusive means small, poorly fitted or top-dose-only effect; inactive means flat fitted curve, though single readings scatter. These entries were drawn from the full list.
Select the matching outcome among active, inactive

Before answering, review these 2 worked examples.
{"Compound": "COc1ccc(NC(=O)CSc2nc(NS(=O)(=O)c3ccc(C)cc3)cc(=O)[nH]2)cc1", "Assigned Class": "inactive"}
{"Compound": "CCCN1CCc2nc(N3CCN(C)CC3)ncc2C1", "Assigned Class": "inactive"}

Prompt: Which outcome was entered for the compound `COc1ccc(CNc2nc(NCc3ccc(OC)cc3)c3ncn(C4CCCC4)c3n2)cc1` in this test?
Response: active

Prompt: Which outcome was entered for the compound `CN(C)/N=C/c1cn(-c2ccccc2)nc1-c1cccnc1` in this test?
Response: inactive

Prompt: Which outcome was entered for the compound `O=S(=O)(c1cnccc1N1CCN(/N=C/c2ccc(Br)cc2)CC1)N1CCCCC1` in this test?
Response: active
